Tested on: T-47D spheroids with HUVEC/MSC, viability
Experiment: Anticancer human tumor T-47D cell line growth inhibition [PI3K];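 further: spheroids exposed to agents for seven days before reading; percent of DMSO vehicle control luminescence so 100% = untreated growth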
Conditions: compound 1 µM; hits give low values
Text: Combinatorial screen of targeted agents with the PI3K inhibitors inavolisib, alpelisib, duvelisib, and copanlisib in multi-cell type tumor spheroids A high-throughput screen of multi-cell type tumor spheroids was designed to identify active combinations of targeted small molecules and PI3K pathway inhibitors. […] Compounds. […] If the clinical Cmax for an agent had not been determined, the highest concentration tested was 10 microM. […]
measured.metric: viability, T/C

stdin: Quick check: viability, T/C of CC(Cn1ccc(-c2ccc(C#N)c(Cl)c2)n1)NC(=O)c1cc(C(C)O)[nH]n1 (stereo not given) ?
stdout: 95.2% [middle of 4 runs]

stdin: Quick check: viability, T/C of `CCCS(=O)(=O)Nc1ccc(F)c(C(=O)c2c[nH]c3ncc(-c4ccc(Cl)cc4)cc23)c1F` ?
stdout: 107% [middle of 4 runs]

stdin: Quick check: viability, T/C of CC(Nc1ccc2c(c1)OCCn1cc(N3C(=O)OCC3C(F)F)nc1-2)C(N)=O (stereo not given) ?
stdout: 57.9% [middle of 8 runs]

stdin: Quick check: viability, T/C of Cc1nc(NC(=O)N2CCCC2C(N)=O)sc1-c1ccnc(C(C)(C)C(F)(F)F)c1 (stereo not given) ?
stdout: 97.6% [middle of 8 runs]

stdin: Quick check: viability, T/C of `CNC(=O)c1ccc(N2C(=S)N(c3ccc(C#N)c(C(F)(F)F)c3)C(=O)C2(C)C)cc1F` ?
stdout: 108% [middle of 4 runs]
